pKd: −log10 of the molar value.
This section lists pKd readings for Histone deacetylase 1 (Homo sapiens, UniProt Q13547).

record smiles | pKd
COc1ccc(Cn2ccc3ccc(C(=O)NO)cc32)cc1C(=O)NCCCCNc1ccc(S(=O)(=O)N(C)C)c2nonc12 | 4.10
COc1ccc(Cn2ccc3ccc(C(=O)NO)cc32)cc1C(=O)NCCNc1ccc(S(=O)(=O)N(C)C)c2nonc12 | 4.79
COc1ccc(Cn2ccc3ccc(C(=O)NO)cc32)cc1C(=O)NCCCNc1ccc(S(=O)(=O)N(C)C)c2nonc12 | 4.69
